method: Inhibition of Na+/K+-ATPase (unknown origin) by luminescent ADP detection assay
Parameters: species or system Homo sapiens
quantity.name: IC50 (µM)
Number only, in µM; omit the unit.

Please list IC50 recorded for the compound C[C@H]1O[C@@H](O[C@H]2[C@@H](O)C[C@H](O[C@H]3[C@@H](O)C[C@H](O[C@H]4CC[C@@]5(C)[C@H](CC[C@@H]6[C@@H]5CC[C@]5(C)[C@@H](C7=CC(=O)OC7)CC[C@]65O)C4)O[C@@H]3C)O[C@@H]2C)C[C@H](O)[C@@H]1O
0.46

Please report IC50 for the following compound: CO[C@H]1C[C@H](O[C@H]2CC[C@@]3(C)[C@@H](C2)C[C@@H]2O[C@]24[C@@H]3[C@H](O)C(=O)[C@]2(C)[C@H](C3=CC(=O)OC3)CC[C@]42O)O[C@@H](C)[C@@H]1O
40
